Assay: Quantitative High-Throughput drug screen in 47 multiple myeloma cell lines against the NCATS MIPE library collection: KMM1_JCRB cell viability assay (AID 1918960); further: nearly all actives have a fitted effect of over 30% in size
Settings: KMM1 myeloma viability, CellTiter-Glo ATP luminescence, 48 h; series mostly up to 45.8 µM
Description: PI: Beverly A. Mock Ph.D. Laboratory of Cancer Biology and Genetics, Center for Cancer Research, National Cancer Institute, National Institute of Health, Bethesda, Maryland […] 5; Detector; 425V; Luminescence; Viewlux PerkinElmer. […] 1. […] Briefly, the corresponding myeloma cell lines were screened in 1,536-well plates with 500 cells, 5-uL per well for inhibition of cell viability (assessed by measuring ATP levels with CellTiterGlo). […]
Results filed as inconclusive are left out. Activity calls are given as the source filed them. The call rests on the fitted dose curve; in most records, active means well fitted cell-killing curve with a large enough effect; inconclusive means small, poorly fitted or top-dose-only effect, or effect the other way; inactive means no such curve, though single readings can be large or run the other way.
Labels: active, inactive

1. Cc1oncc1C(=O)Nc1ccc(C(F)(F)F)cc1 : inactive
2. NC(=O)c1ccc(-c2nc(-c3ccc4c(c3)OCO4)c(-c3ccccn3)[nH]2)cc1 : active
3. c1ccc([C@H]2CN3CCSC3=N2)cc1 : inactive
4. NC[C@H](O)c1ccc(O)c(O)c1 : inactive
5. Cc1ccccc1C(C(=O)NC1CCCC1)N(C(=O)Cn1cnc2ccccc21)c1cccc(F)c1 (stereo not given) : inactive

---

system: HeLa; assay: Primary qHTS to identify gynecologic anti-cancer compounds using libraries of approved drugs and bioactive compounds (AID 1345084); conditions: Gynecologic cancer cell panel viability, ATPlite luminescence, 48 h; series mostly up to 57.5 µM; further: nearly all actives have a fitted effect of over 55% in size
Records with an inconclusive call do not appear. The source made the active and inactive calls. Calls come from the whole dose curve; as a rule, active = well fitted cell-killing curve with a large enough effect; inconclusive = small, poorly fitted or top-dose-only effect, or effect the other way; inactive = flat fitted curve, though single readings scatter.
Labels: active, inactive

1. CN(C)C(=O)c1ccc(S(=O)(=O)c2ccc(NC(=O)[C@@](C)(O)C(F)(F)F)c(Cl)c2)cc1 : inactive
2. NS(=O)(=O)c1cc2c(cc1Cl)NC=NS2(=O)=O : inactive
3. N#CC[C@H](C1CCCC1)n1cc(-c2ncnc3[nH]ccc23)cn1 : inactive
4. Cc1oncc1C(=O)Nc1ccc(C(F)(F)F)cc1 : active
5. O=C(Nc1cccnc1)N1CCC(Cc2cccc(Oc3ccc(C(F)(F)F)cn3)c2)CC1 : inactive
6. CCC(C)n1ncn(-c2ccc(N3CCN(c4ccc(OC[C@H]5CO[C@](Cn6cncn6)(c6ccc(Cl)cc6Cl)O5)cc4)CC3)cc2)c1=O (stereo partly specified) : inactive
7. Nc1nc2c(ncn2COCCO)c(=O)[nH]1 : inactive
8. S=C(NCc1ccc2c(c1)OCO2)N1CCN(c2ncnc3c2oc2ccccc23)CC1 : inactive
9. N=c1nc(N2CCCCC2)cc(N)n1O : inactive
10. CN(C)c1ccc(C2Nc3ccc4ccccc4c3C3=C2C(=O)CC(C)(C)C3)cc1Br (stereo unspecified) : inactive
11. CCOC(=O)C1=C[C@]2(CC)CCCN3CCc4c(n1c1ccccc41)[C@@H]32 : inactive
12. CC(C)(N)C(=O)N[C@H](COCc1ccccc1)C(=O)N1CCC2(CC1)CN(S(C)(=O)=O)c1ccccc12 : inactive
13. CC(=O)Oc1ccccc1C(=O)O : inactive
14. COc1cc(Nc2ncc3c(n2)-c2ccc(Cl)cc2C(c2c(F)cccc2OC)=NC3)ccc1C(=O)O : inactive
15. Cc1[nH]c(=O)c(C#N)cc1-c1ccc2nccn2c1 : inactive
16. Cc1ccccc1C(OCCN(C)C)c1ccccc1 (stereo unspecified) : inactive
17. CCOc1cc(C(=O)Nc2ccc(Cl)c(-c3nc4ccccc4[nH]3)c2)cc(OCC)c1OCC : inactive
18. CC1(C)CNc2cc(NC(=O)c3cccnc3NCc3ccncc3)ccc21 : inactive
19. CC(C)(Sc1ccc(CCN(CCCCC2CCCCC2)C(=O)NC2CCCCC2)cc1)C(=O)O : inactive
20. COc1cc(Oc2ccnc3cc(OC)c(OC)cc23)ccc1NC(=O)NC(C)c1nccs1 (stereo unspecified) : inactive
21. CCCCNc1cc(C(=O)O)cc(S(N)(=O)=O)c1Oc1ccccc1 : inactive

---

system: WaGa; assay: qHTS assay to identify novel small-molecules to repurpose for Merkel cell carcinoma treatment (AID 1296009); conditions: MCC and control cell lines, CellTiter-Glo viability, 72 h; series mostly up to 46 µM; further: nearly all actives have a fitted effect of over 60% in size
Records with an inconclusive call do not appear. Active and inactive are the calls of the source. Calls come from the whole dose curve; as a rule, active = well fitted inhibition curve with a large enough effect; inconclusive = small, poorly fitted or top-dose-only effect; inactive = flat fitted curve, though single readings scatter.
Labels: 1 for active, 0 for inactive

1. CCOc1cc(C(=O)Nc2ccc(Cl)c(-c3nc4ccccc4[nH]3)c2)cc(OCC)c1OCC : 0
2. O=C1[C@H](Cc2ccc(O)cc2)N2C(=O)CCN(C(=O)NCc3ccccc3)[C@H]2CN1Cc1cccc2ccccc12 : 1
3. Nc1ccc(S(=O)(=O)Nc2ccnn2-c2ccccc2)cc1 : 0
4. CN(C(=O)c1ccc(F)cc1C(F)(F)F)C1CCN(c2nnc(-c3ccnn3C)c3ccccc23)CC1 : 0
5. Cc1c(CCOc2ccc(C(=O)O)cc2)c2cc(Cl)ccc2n1C(c1ccccc1)c1ccccc1 : 0
6. O=C1CCc2cc(OCCCCc3nnnn3C3CCCCC3)ccc2N1 : 0
7. O=S(=O)(N=Cc1c(O)ccc2ccccc12)c1cccs1 : 0
8. Cc1cnc(Nc2ccc(OCCN3CCCC3)cc2)nc1Nc1cccc(S(=O)(=O)NC(C)(C)C)c1 : 0
9. CCOc1cc(C=C2C(=O)N(c3ccccc3)N=C2C)cc(Cl)c1OCC(=O)OC : 0

---

test: qHTS for differential inhibitors of proliferation of Plasmodium falciparum line Dd2 (AID 1882); details: Plasmodium falciparum Dd2 proliferation inhibition; series mostly up to 28.7 µM; further: nearly all actives have a fitted effect of over 65% in size
Inconclusive results are not listed. Calls of active or inactive are those of the source. Calls come from the whole dose curve; as a rule, active = well fitted inhibition curve with a large enough effect; inconclusive = small, poorly fitted or top-dose-only effect; inactive = flat fitted curve, though single readings scatter.
Labels: active, inactive

1) NCCc1ccc(O)c(O)c1 : inactive
2) N[C@@H]1CONC1=O : inactive
3) CCC(C)N(C)C(=O)c1cc2ccccc2c(-c2ccccc2Cl)n1 (stereo not drawn) : inactive
4) N=c1nc(N2CCCCC2)cc(N)n1O : inactive
5) CC(C)C[C@H](NC(=O)[C@@H](O)[C@H](N)Cc1ccccc1)C(=O)O : active
6) Cc1ccc(N(CC2=NCCN2)c2cccc(O)c2)cc1 : inactive
7) NC(=O)c1cnccn1 : inactive
8) CC(C[N+](C)(C)C)OC(N)=O (stereo not drawn) : inactive

---

Experiment: qHTS profiling of the MIPE4 collection as inhibitors of Plasmodium falciparum (HB3) proliferation (AID 743347);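 further: plate controls were DMSO vehicle wells for no effect and artemisinin wells for full effect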
Details: P. falciparum HB3 in erythrocytes, SYBR Green DNA, 72 h; at 28.5 µM (top of the series) unless noted
Description: Plasmodium falciparum is a virulent malarial parasite that kills 1-2 million people worldwide each year. […] Because mature erythrocytes lack DNA, only Plasmodium-derived DNA is detected. The SYBR Green viability assay was adapted from a method described previously (Plouffe et al., 2008). […] The following morning, fluorescence intensity at 485(14) nm excitation and 535(25) nm emission wavelengths was measured on an EnVision (Perkin Elmer) plate reader. […]
# growth, % of control annotations
MEASUREMENT KIND: growth, % of control (%)

1. COc1ccc(-c2ccc3c(N4CCOCC4)nc(N4C[C@@H](C)O[C@@H](C)C4)nc3n2)cc1CO : 5.91
2. COc1cc2nccc(Oc3ccc(NC(=O)NC4CC4)c(Cl)c3)c2cc1C(N)=O : 19.2
3. Cn1cnc2c(F)c(Nc3ccc(Br)cc3Cl)c(C(=O)NOCCO)cc21 : 97.3
4. CCOC(=O)N[C@@H]1CC[C@@H]2[C@@H](C1)C[C@H]1C(=O)O[C@H](C)[C@H]1[C@@H]2C=Cc1ccc(-c2cccc(F)c2)cn1 : 5.21
5. CN1CCN(CCCN2c3ccccc3Sc3ccc(C(F)(F)F)cc32)CC1 : 83
6. O=c1[nH]c(-c2ccc(C(F)(F)F)cc2)nc2c1CSCC2 : 86.7
7. CCCCCCCc1ccc(CCc2cccc(O)c2C(=O)O)cc1 : 81.6
8. COCC(=O)NCC=Cc1ccc2ncnc(Nc3ccc(Oc4ccc(C)nc4)c(C)c3)c2c1 : 9.14
9. CNCc1ccc(-c2[nH]c3cc(F)cc4c3c2CCNC4=O)cc1 : 18.7
10. Cc1c(C)c2c(c(C)c1O)CCC(C)(COc1ccc(CC3SC(=O)NC3=O)cc1)O2 (stereo not drawn) : 62.4
11. CCC(C)N(C)C(=O)c1cc2ccccc2c(-c2ccccc2Cl)n1 (stereo not drawn) : 53.6
12. NCCc1ccc(O)c(O)c1 : 53.9
13. COc1ccc(CCN2CCN(CCCc3ccccc3)CC2)cc1OC : 21.1
14. CCc1ccc(CCOc2ccc(CC3SC(=O)NC3=O)cc2)nc1 (stereo not drawn) : 63.3
15. NC(=O)c1cnccn1 : 105
16. CCCS(=O)(=O)Nc1ccc(F)c(C(=O)c2c[nH]c3ncc(Cl)cc23)c1F : 71.8
17. Cn1c(=O)c(F)c(Nc2ccc(I)cc2F)c2c(=O)n(C[C@@H](O)CO)cnc21 : 7.31
18. COCCNCCCn1c(C(=O)CF)c(-c2ccc(C)cc2)c2c(N)ncnc21 : 32.4
19. CN(C)c1ccc(C2Nc3ccc4ccccc4c3C3=C2C(=O)CC(C)(C)C3)cc1Br (stereo not drawn) : 78
20. Cc1cn[nH]c1 : 8.35
21. Cc1oncc1C(=O)Nc1ccc(C(F)(F)F)cc1 : 10.6
22. O=C(Nc1ccc(F)c(C(F)(F)F)c1)Nc1nnc(-c2ccncc2)s1 : 4.4
23. c1ccc(-c2nn3c(c2-c2ccnc4cc(OCCN5CCOCC5)ccc24)CCC3)nc1 : 17.9
24. CCCn1c(=O)c2[nH]c(C34CC5CC3C[C@@H](C5)C4)nc2n(CCC)c1=O : 5.74
25. O=C(O)COCCN1CCN(C(c2ccccc2)c2ccc(Cl)cc2)CC1 (stereo not drawn) : 91
26. CCn1cc(C(=O)O)c(=O)c2cc(F)c(N3CCNC(C)C3)c(F)c21 (stereo not drawn) : 91.5
27. CCOC(=O)N1CCC(=C2c3ccc(Cl)cc3CCc3cccnc32)CC1 : 13.8
28. N#CC[C@H](C1CCCC1)n1cc(-c2ncnc3[nH]ccc23)cn1 : 40.5
29. CC[C@@H](C)[C@H](NC(=O)[C@H](CC1CCCCC1)NC(=O)c1ccno1)C(=O)N1CCC2(CCc3ccccc32)CC1 : 5.03
30. Cc1ccccc1C(OCCN(C)C)c1ccccc1 (stereo not drawn) : 87.3
31. CN(C)C(=O)c1ccc(S(=O)(=O)c2ccc(NC(=O)[C@@](C)(O)C(F)(F)F)c(Cl)c2)cc1 : 62
32. Cn1cnc([N+](=O)[O-])c1Sc1ncnc2nc[nH]c12 : 45.9
33. NC(=O)c1ccc(I)c([N+](=O)[O-])c1 : 96
34. Clc1ccc(Nc2nnc(Cc3ccncc3)c3ccccc23)cc1 : 53.1
35. CC(C[N+](C)(C)C)OC(N)=O (stereo not drawn) : 69.1
36. Cc1ccc(-n2nc(C(C)(C)C)cc2NC(=O)Nc2ccc(OCCN3CCOCC3)c3ccccc23)cc1 : 72.4
37. Cc1[nH]c(=O)c(C#N)cc1-c1ccncc1 : 9.94
38. CC1(C)Cc2c(-c3ccccc3)c(-c3ccc(Cl)cc3)c(CC(=O)O)n2C1 : 82.7
39. Nc1nc2c(ncn2COCCO)c(=O)[nH]1 : 99.6
40. OCCC#Cc1nc(-c2ccc(F)cc2)c(-c2ccncc2)n1CCCc1ccccc1 : 7.31
41. O=C(NOC[C@H](O)CO)c1ccc(F)c(F)c1Nc1ccc(I)cc1F : 97.2

Cited source: PubChem BioAssay (NCATS)
